# TESTED_SYSTEM: T1, human RANK-L, full length, membrane-bound, expressed on HEK293T cells (human, UniProt O14788 1-317)
# T1 construct: whole, on cells; also called hRANK-L
# T1 sequence (looked up): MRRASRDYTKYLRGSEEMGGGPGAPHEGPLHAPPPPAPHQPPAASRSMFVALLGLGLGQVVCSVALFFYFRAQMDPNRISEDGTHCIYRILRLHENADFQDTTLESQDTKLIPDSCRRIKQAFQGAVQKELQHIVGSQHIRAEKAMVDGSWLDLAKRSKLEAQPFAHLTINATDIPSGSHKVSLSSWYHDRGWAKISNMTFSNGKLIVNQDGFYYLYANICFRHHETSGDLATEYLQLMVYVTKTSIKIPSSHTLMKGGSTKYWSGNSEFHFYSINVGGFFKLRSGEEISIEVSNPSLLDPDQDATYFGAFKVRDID
# ASSAY_INFO: FACS, HEK293T with human RANK-L, 16 pM Nanobody
Entries whose PE mean fluorescence is below 400 take Satisfied; entries at or above 400 take Not satisfied.

INSERT INTO measurements (binder, assigned_label) VALUES
  ('RANKL13 (VHH, not shown: small tags and cut ends) VHH: EVQLVESGGGLVQAGGSLRLSCAASGRTFRSYPMGWFRQAPGKEREFVASITGSGGSTYYADSVKGRFTISRDNAKNTVYLQMNSLRPEDTAVYSCAAYIRPDTYLSRDYRKYDYWGQGTQVTVSS', 'Not satisfied'),
  ('RANKL6 (VHH, not shown: c-myc and His6 tags) VHH: EVQLVESGGGLMQTGGSLRLSCAASGVTYSYYTASWFRQAPGKEREFVAAISPSGNTYYADSVKGRFTISRDNGKHTMYLQMNSLNPEDTAVYFCAIRATDSIYYASSYRHWGQGTQVTVSS', 'Not satisfied'),
  ('RANKL9 (VHH, not shown: c-myc and His6 tags) VHH: EVQLVESGGGLVQAGGSLRLTCAASGRTFRSYAMGWFRQAPGKEREFVAAINYSGGSTNYADSVKGRFTISRDNAKNTLYLQMNSLEPEDTAVYYCAAGSGYASLSYYSTERAYTYWGQGTQVTVSS', 'Not satisfied'),
  ('RANKL18 (VHH, not shown: small tags and cut ends) VHH: EVQLVESGGGLVQAGGSLRLSCAASGRTFSRSAMGWFRQAPGKEREFVGFITGSGGTTYYGESVKGRFTISRDNAQNPVYLQMNSLKPEDTAVYYCGVYRRTYISSTYSESSEYDYWGQGTQVTVSS', 'Satisfied'),
  ('RANKL15 (VHH, not shown: small tags and cut ends) VHH: EVQLVESGGGLVQAGGSLRLSCAAAGGTFRNYVMGWFRQAPGKEREFVTAISTGGSWTGYVDSVKDRFTISRDNTKNTVYLQMASLKPEDTAVYYCAATTPATTYLPRSERQYDYWGQGTQVTVSS', 'Satisfied');

Each recorded value in this set is attributed to patent US20110002929A1.
